Every entry's value here was drawn from paper PMC5706701.

# Lookup of reported Z-score keyed by entry
# ASSAY_SYSTEM: Human IP6K1 (Homo sapiens, UniProt Q92551)
# Construct: GST (N, cleaved yes); made in house; host or cells: C43 E. coli, pGEX-6P-2
# Sequence (Q92551 whole entry): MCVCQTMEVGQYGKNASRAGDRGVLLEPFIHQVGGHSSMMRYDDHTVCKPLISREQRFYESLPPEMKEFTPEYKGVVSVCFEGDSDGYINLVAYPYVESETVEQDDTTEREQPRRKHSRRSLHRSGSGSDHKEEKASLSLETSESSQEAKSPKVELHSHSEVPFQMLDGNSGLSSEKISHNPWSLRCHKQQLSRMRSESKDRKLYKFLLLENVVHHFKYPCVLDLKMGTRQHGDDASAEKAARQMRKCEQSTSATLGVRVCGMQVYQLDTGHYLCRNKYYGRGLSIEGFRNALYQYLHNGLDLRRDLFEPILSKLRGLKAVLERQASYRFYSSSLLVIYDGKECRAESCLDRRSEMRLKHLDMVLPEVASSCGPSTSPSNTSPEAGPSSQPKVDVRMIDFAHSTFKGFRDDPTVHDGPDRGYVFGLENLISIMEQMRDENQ
# PROTOCOL_DESCRIPTION: IP6K1 high-throughput screen of the Sigma LOPAC (ADP-Glo Max, single point);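 note: final compound concentration 10µM in 5% DMSO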
# Type: biochemical
# REPORTED_CONDITIONS: LOPAC single-point screen, Z-score against plate average and StDev
Where a name gives a salt, the structure may show the parent alone.
# respond with the number and nothing more

Reference set, count: 10
INSERT INTO results (compound, property, meas_value) VALUES
  ('C=CCN1CC[C@]23c4c5ccc(O)c4O[C@H]2C(=O)CC[C@@]3(O)[C@H]1C5 [Naloxone hydrochloride]', 'Z-score', 0.1088),
  ('C=CC[N+](C)(C)c1ccc(CCC(=O)CCc2ccc([N+](C)(C)CC=C)cc2)cc1.[Br-].[Br-] [BW 284c51]', 'Z-score', -0.06941),
  ('N=C(N)N/N=C/c1c(Cl)cccc1Cl [Guanabenz acetate]', 'Z-score', -0.09038),
  ('Cn1c(=O)c2[nH]c(-c3ccccc3)nc2n(C)c1=O [1,3-Dimethyl-8-phenylxanthine]', 'Z-score', 0.02075),
  ('NN=C(N)N.NN=C(N)N.O=S(=O)(O)O [Aminoguanidine hemisulfate]', 'Z-score', 0.03415),
  ('Cc1cnc(NC(=O)C2=C(O)c3ccccc3S(=O)(=O)N2C)s1 [Meloxicam sodium]', 'Z-score', 0.128),
  ('CCC(=O)N1CCN(C(=O)c2ccccc2)CC1 [DM 235]', 'Z-score', 0.09402),
  ('CC12CC3CC(C)(C1)CC(N)(C3)C2 [Memantine hydrochloride]', 'Z-score', 0.2983),
  ('O=C1N(c2ccccc2)c2ccccc2C1(Cc1ccncc1)Cc1ccncc1 [Linopirdine]', 'Z-score', 0.1424),
  ('OC(CN1CCN(c2cccc(Cl)c2)CC1)C(c1ccccc1)c1ccccc1 (stereo not drawn) [BRL 15572]', 'Z-score', 0.006323);

Just so you know, measured Z-score for CCNC(=O)[C@H]1O[C@@H](n2cnc3c(NCc4ccccc4)ncnc32)[C@H](O)[C@@H]1O [N6-Benzyl-5 -N-ethylcarboxamidoadenosine] came out at 0.1916
